Biological target: T1, biotin-Aβ1-20 (UniProt P05067 672-691, not fully specified; biotin (site not stated))
T1 construct: domain: Aβ1-20; BIACORE antigen standing for monomeric Aβ peptide; also called biotinylated-Aβ1-20
T1 peptide (looked up): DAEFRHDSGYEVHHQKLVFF
Test: BIACORE, Fab fragment against biotinylated-Aβ1-20
pKd: −log10 of the molar value.

[
  {
    "binder": "20C28B Fab (Fab, V domains shown) VH: QVTLKESGPALVKPTQTLTLTCTLSGFSLSTSGMGVGWIRQPPGKALEWLAHIWWDDDKSYNPSLKSRLTISKDTSKNQVVLTMTNMDPVDTATYYCARRQLGLRSIDAMDYWGQGTTVTVSS VL: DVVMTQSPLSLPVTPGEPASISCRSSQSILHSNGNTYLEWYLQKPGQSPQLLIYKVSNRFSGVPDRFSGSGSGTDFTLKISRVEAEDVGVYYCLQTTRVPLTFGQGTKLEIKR",
    "pKd": 8.96
  },
  {
    "binder": "4b-A7 Fab (Fab, V domains shown) VH: QVTLKESGPALVKPTQTLTLTCTLSGFSLSTSGMGVGWIRQPPGKALEWLAHIWWDDDKSYNPSLKSRLTISKDTSKNQVVLTMTNMDPVDTATYYCARRQLGKLALDAMDYWGQGTTVTVSS VL: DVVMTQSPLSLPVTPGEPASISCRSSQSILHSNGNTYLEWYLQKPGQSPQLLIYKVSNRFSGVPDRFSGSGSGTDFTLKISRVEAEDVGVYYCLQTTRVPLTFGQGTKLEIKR",
    "pKd": 8.76
  },
  {
    "binder": "4a-A3 Fab (Fab, V domains shown) VH: QVTLKESGPALVKPTQTLTLTCTLSGFSLSTSGMGVGWIRQPPGKALEWLAHIWWDDDKSYNPSLKSRLTISKDTSKNQVVLTMTNMDPVDTATYYCARRQLGTRGTDAMDYWGQGTTVTVSS VL: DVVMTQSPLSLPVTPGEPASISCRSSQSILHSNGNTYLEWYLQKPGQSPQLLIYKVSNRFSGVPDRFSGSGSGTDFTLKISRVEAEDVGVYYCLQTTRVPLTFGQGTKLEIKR",
    "pKd": 9.07
  }
]
